test: Cytotoxicity against human A549-ACE2 cells assessed as reduction in cell viability; assay type: toxicity, cell-based; conditions: a549-ace2
Classify: yes when CC50 is strictly less than 30 µM; no when CC50 is not.

Worked examples, 3 molecules total:
>>> print(df.to_string())
                                test_smiles  label_class
0  C[C@@H](NC(=O)c1ccccc1CCC(=O)NNC(=O)/C=C/C(=O)OC(C)(C)C)c1cccc2ccccc12           no
1  COC(=O)/C=C\C(=O)NNC(=O)CCc1ccccc1C(=O)N[C@H](C)c1cccc2ccccc12           no
2  COC(=O)/C=C/CNC(=O)CCc1ccccc1C(=O)N[C@H](C)c1cccc2ccccc12           no

**Q:** API: query returns whether the molecule falls strictly under 30 µM in CC50. Query: C[C@@H](NC(=O)c1ccccc1CCC(=O)NNC(=O)/C=C/C#N)c1cccc2ccccc12
**A:** yes

###

assay: Clearance in dog at 2 mg/kg, iv; format: ADME, organism-based, Canis lupus familiaris; details: in vivo
Measurement Type: clearance (mL/min/kg)
Answers are plain numbers, in mL/min/kg.

                                test_smiles  measurement_type  scale_unit  result_number
0  CCOC(=O)/C=C/C(=O)NNC(=O)CCc1ccccc1C(=O)N[C@H](C)c1cccc(-c2cccs2)c1         clearance   mL/min/kg           95.1

**Q:** Query (compound): COC(=O)/C=C/C(=O)NNC(=O)CCc1ccccc1C(=O)N[C@H](C)c1cccc2ccccc12 ; field requested: clearance
**A:** 107

###

target: Replicase polyprotein 1ab (Severe acute respiratory syndrome coronavirus 2, UniProt P0DTD1)
Measurement Type: IC50 (µM)
One number for each entry, in µM.

# batch size: 2; output IC50 per entry
1. CC(C)OC(=O)/C=C/C(=O)NNC(=O)CCc1ccccc1C(=O)N[C@H](C)c1cccc2ccccc12
2. CC#CC(=O)NNC(=O)CCc1ccccc1C(=O)N[C@H](C)c1cccc2ccccc12

**A:**
0.24
11.3

# batch size: 3; output IC50 per entry
1. COC(=O)/C=C/C(=O)NNC(=O)CCc1ccccc1C(=O)N[C@H](C)c1cccc(C2=CCOCC2)c1
2. C=C(CC(=O)NNC(=O)CCc1ccccc1C(=O)N[C@H](C)c1cccc2ccccc12)C(=O)OC
3. C[C@@H](NC(=O)c1ccccc1CCC(=O)NNC(=O)/C=C/C(=O)N(C)C)c1cccc2ccccc12

**A:**
1. 0.29
2. 17.9
3. 18.5

# batch size: 6; output IC50 per entry
1. C[C@@H](NC(=O)c1ccccc1CCC(=O)NNC(=O)CC#N)c1cccc2ccccc12
2. CCCCOC(=O)/C=C/C(=O)NNC(=O)CCc1ccccc1C(=O)N[C@H](C)c1cccc2ccccc12
3. COC(=O)/C=C/C(=O)NNC(=O)CCc1ccccc1C(=O)N[C@H](C)c1cccc(-c2cncnc2)c1
4. CC(=O)C(=O)NNC(=O)CCc1ccccc1C(=O)N[C@H](C)c1cccc2ccccc12
5. C[C@@H](NC(=O)c1ccccc1CCC(=O)NNC(=O)COC(F)(F)F)c1cccc2ccccc12
6. C[C@@H](NC(=O)c1ccccc1CCC(=O)NNC(=O)/C=C/C(=O)OCc1ccc2ccccc2n1)c1cccc2ccccc12

**A:**
1: 9.5; 2: 0.24; 3: 0.35; 4: 37.3; 5: 52.9; 6: 0.45

# batch size: 5; output IC50 per entry
1. COC(=O)/C=C/CNC(=O)CCc1ccccc1C(=O)N[C@H](C)c1cccc2ccccc12
2. COc1ccc(COC(=O)/C=C/C(=O)NNC(=O)CCc2ccccc2C(=O)N[C@H](C)c2cccc3ccccc23)cc1OC
3. CCOC(=O)/C=C/C(=O)NNC(=O)CCc1ccccc1C(=O)N[C@H](C)c1cccc(-c2cccs2)c1
4. C[C@@H](NC(=O)c1ccccc1CCC(=O)NNC(=O)/C=C/c1ncco1)c1cccc2ccccc12
5. CCOC(=O)/C=C/C(=O)NNC(=O)CCc1ccccc1C(=O)N[C@H](C)c1cccc2ccccc12

**A:**
[26.2, 1.01, 0.14, 44.5, 0.19]

# batch size: 2; output IC50 per entry
1. CC(=O)/C=C/C(=O)NNC(=O)CCc1ccccc1C(=O)N[C@H](C)c1cccc2ccccc12
2. C[C@@H](NC(=O)c1ccccc1CCC(=O)NNC(=O)C(F)Cl)c1cccc2ccccc12 (stereo partly drawn)

**A:**
1: 27.2; 2: 15.8
